Source: ChEMBL document CHEMBL3797162

Below is a list of entries, each paired with its recorded pKi value.
- STUDY_SYSTEM: Sodium-dependent serotonin transporter (Homo sapiens, UniProt P31645, I172M)
- Sequence (P31645 whole entry I172M): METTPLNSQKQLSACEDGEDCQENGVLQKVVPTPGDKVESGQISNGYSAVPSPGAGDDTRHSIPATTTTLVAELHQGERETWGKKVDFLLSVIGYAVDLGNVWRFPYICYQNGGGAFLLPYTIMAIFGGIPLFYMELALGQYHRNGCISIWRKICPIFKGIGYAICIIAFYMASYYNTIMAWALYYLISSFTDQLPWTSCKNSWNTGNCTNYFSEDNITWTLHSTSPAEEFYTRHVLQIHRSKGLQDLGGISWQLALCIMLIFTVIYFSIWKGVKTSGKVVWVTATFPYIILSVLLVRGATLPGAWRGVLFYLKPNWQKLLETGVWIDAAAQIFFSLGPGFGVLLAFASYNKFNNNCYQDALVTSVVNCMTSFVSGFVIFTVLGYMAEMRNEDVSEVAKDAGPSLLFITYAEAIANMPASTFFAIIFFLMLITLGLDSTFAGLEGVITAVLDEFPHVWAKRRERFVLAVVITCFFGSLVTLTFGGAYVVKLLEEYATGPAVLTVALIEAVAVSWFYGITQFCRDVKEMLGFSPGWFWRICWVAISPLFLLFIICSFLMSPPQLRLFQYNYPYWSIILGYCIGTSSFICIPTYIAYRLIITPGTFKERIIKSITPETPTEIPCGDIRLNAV
- PROTOCOL_SUMMARY: Inhibition of human SERT I172M mutant expressed in HEK293 MSR cells assessed as [3H]-5-HT uptake preincubated for 30 mins followed addition of [3H]-5HT and compound for 10 mins by micro-scintillation counter
For clarity, pKi is expressed as the negative log10 of concentration in mol/L.

Please review the entries below; each comes with its answer.
TEST_SMILES: CN(C)CCCN1c2ccccc2CCc2ccc(C#CCOCCOCCOc3cccc4ccccc34)cc21
pKi: 5.19
--
TEST_SMILES: CN(C)CCCN1c2ccccc2CCc2ccc(CCCOCCOCCc3cccc4ccccc34)cc21
pKi: 5.17
--
TEST_SMILES: CN(C)CCCN1c2ccccc2CCc2ccc(C#CCOCCOc3ccc4ccccc4c3)cc21
pKi: 5.70
--
TEST_SMILES: CN(C)CCCN1c2ccccc2CCc2ccc(C#CCOCCOCCSc3cccc4ccccc34)cc21
pKi: 4.72
--
TEST_SMILES: CN(C)CCCN1c2ccccc2CCc2ccc(C#CCOCCCN3c4ccccc4CCc4ccccc43)cc21
pKi: 4.80

Requested read-out: pKi. Entry: `CN(C)CCCN1c2ccccc2CCc2ccc(C#CCOCc3cccc4ccccc34)cc21`
5.27

Now consider `CN(C)CCCN1c2ccccc2CCc2ccc(C#CCOCCCOc3cccc4ccccc34)cc21` and answer again.
4.57

And then `CN(C)CCCN1c2ccccc2CCc2ccc(CCCOCCOc3cccc4ccccc34)cc21` , what is it?
5.57

What would you report for `CN(C)CCCN1c2ccccc2CCc2ccc(CCCOCc3cccc4ccccc34)cc21` ?
5.30

Please give the result for `CN(C)CCCN1c2ccccc2CCc2ccc(C#CCO)cc21` too.
5.59

And for `CN(C)CCCN1c2ccccc2CCc2ccc(CCCOCCCOCCCN3c4ccccc4CCc4ccccc43)cc21` ?
4.96

# iterate: `C#Cc1ccc2c(c1)N(CCCN(C)C)c1ccccc1CC2`
5.62

What do you have for `CN(C)CCCN1c2ccccc2CCc2ccc(CCCOCCCOc3cccc4ccccc34)cc21` ?
5.03

// same read-out, input: `CN(C)CCCN1c2ccccc2CCc2ccc(C#CCOCCCOCCCN3c4ccccc4CCc4ccccc43)cc21`
5.00

Next entry: `CN(C)CCCN1c2ccccc2CCc2ccc(C#CCOCCOc3cccc4ccccc34)cc21`
5.10

Same question for `CN(C)CCCN1c2ccccc2CCc2ccc(C#CCOCCOCCc3cccc4ccccc34)cc21` please.
5.28

Repeat for the following compound: `CN(C)CCCN1c2ccccc2CCc2ccc(CCCOCCCN3c4ccccc4CCc4ccccc43)cc21`
4.82

* * *

log10 of Ki values for the compounds below.
- STUDY_SYSTEM: Sodium-dependent serotonin transporter (Homo sapiens, UniProt P31645, I179C)
- Sequence (P31645 whole entry I179C): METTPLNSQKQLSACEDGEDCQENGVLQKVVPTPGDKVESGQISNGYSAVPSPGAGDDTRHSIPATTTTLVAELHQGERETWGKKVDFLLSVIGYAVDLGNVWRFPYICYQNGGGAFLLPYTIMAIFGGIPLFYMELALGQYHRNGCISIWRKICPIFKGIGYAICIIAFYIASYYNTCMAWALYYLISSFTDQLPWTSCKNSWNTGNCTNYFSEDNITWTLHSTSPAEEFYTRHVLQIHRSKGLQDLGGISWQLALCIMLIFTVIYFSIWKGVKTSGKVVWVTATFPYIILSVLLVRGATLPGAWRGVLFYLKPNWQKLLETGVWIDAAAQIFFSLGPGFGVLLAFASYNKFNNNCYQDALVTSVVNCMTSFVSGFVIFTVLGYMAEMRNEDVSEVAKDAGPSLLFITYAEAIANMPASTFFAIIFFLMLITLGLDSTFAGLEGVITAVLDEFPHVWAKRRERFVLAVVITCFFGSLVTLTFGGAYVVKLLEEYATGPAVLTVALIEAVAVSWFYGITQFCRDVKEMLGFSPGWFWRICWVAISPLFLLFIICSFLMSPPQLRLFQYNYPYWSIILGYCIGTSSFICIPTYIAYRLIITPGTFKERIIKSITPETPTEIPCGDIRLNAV
- PROTOCOL_SUMMARY: Inhibition of human SERT I179C mutant expressed in HEK293 MSR cells assessed as [3H]-5-HT uptake preincubated for 30 mins followed addition of [3H]-5HT and compound for 10 mins by micro-scintillation counter
Hey, these are logged values: log10 of Ki, µM being the unit before logging.

TEST_SMILES: CN(C)CCCN1c2ccccc2CCc2ccc(CCCOCCCN3c4ccccc4CCc4ccccc43)cc21
log10 of Ki: -0.48
--
TEST_SMILES: CN(C)CCCN1c2ccccc2CCc2ccc(C#CCOCCOc3cccc4ccccc34)cc21
log10 of Ki: 0.26
--
TEST_SMILES: CN(C)CCCN1c2ccccc2CCc2ccc(C#CCOCCOCCSc3cccc4ccccc34)cc21
log10 of Ki: -0.30
--
TEST_SMILES: CN(C)CCCN1c2ccccc2CCc2ccc(C#CCOCCCN3c4ccccc4CCc4ccccc43)cc21
log10 of Ki: 0.20
--
TEST_SMILES: CN(C)CCCN1c2ccccc2CCc2ccc(C#CCOCCOCCOc3cccc4ccccc34)cc21
log10 of Ki: -0.35
--
TEST_SMILES: CN(C)CCCN1c2ccccc2CCc2ccc(C#CCOCCOc3ccc4ccccc4c3)cc21
log10 of Ki: -0.19
--
TEST_SMILES: CN(C)CCCN1c2ccccc2CCc2ccc(C#CCOCCOCCc3cccc4ccccc34)cc21
log10 of Ki: -0.27
--
TEST_SMILES: CN(C)CCCN1c2ccccc2CCc2ccc(CCCOCCOc3cccc4ccccc34)cc21
log10 of Ki: -0.57
--
TEST_SMILES: CN(C)CCCN1c2ccccc2CCc2ccc(CCCOCc3cccc4ccccc34)cc21
log10 of Ki: -0.54
--
TEST_SMILES: C#Cc1ccc2c(c1)N(CCCN(C)C)c1ccccc1CC2
log10 of Ki: -1.57

Field request: log10 of Ki | item: `CN(C)CCCN1c2ccccc2CCc2ccc(CCCOCCCOc3cccc4ccccc34)cc21`
-0.21

Entry to check: `CN(C)CCCN1c2ccccc2CCc2ccc(C#CCOCc3cccc4ccccc34)cc21`
-0.55
